Hello, the source for this data is ChEMBL document CHEMBL1201862, in case you need it.

- Test system: HT-29
- EXPERIMENT: NCI tumour cell line growth inhibition, 48 h
The source made the active and inactive calls. Rule as the data show it: active = GI50 up to about 1.1 µM and inactive = higher.
Classes used: active, inactive

{"COMPOUND": "CN(C)CCNc1nc2c(no[n+]2[O-])c2ccccc12.[O-][Cl+3]([O-])([O-])O", "CLASS": "inactive"}
{"COMPOUND": "NCCC(=O)NC(Cc1c[nH]cn1)C(=O)O (centres undefined)", "CLASS": "inactive"}
{"COMPOUND": "Cc1ccc(NC(=O)CSc2nnc(Cc3ccccc3)o2)cc1", "CLASS": "inactive"}
{"COMPOUND": "N#CCCN(CCC#N)c1ccc(C(=N/c2ccc(F)cc2)/N=N/c2ccc(Cl)cc2)cc1", "CLASS": "inactive"}
{"COMPOUND": "O=C1N[C@@H]2C(=C[C@H](O)[C@@H](O)[C@H]2O)c2cc3c(c(O)c21)OCO3 [NARCICLASINE]", "CLASS": "active"}
{"COMPOUND": "COC(=O)C(=O)C(C(=O)C=C(C)C)C(=O)C(=O)Nc1cccc(C(C)=O)c1 (centres undefined)", "CLASS": "inactive"}
{"COMPOUND": "Cc1cc(-n2nnc(C(=O)O)c2-c2ccccc2)c2ccc(Cl)cc2n1", "CLASS": "inactive"}
{"COMPOUND": "O=c1[nH]cc(/N=C/c2cc(Cl)ccc2O)c(=O)[nH]1", "CLASS": "inactive"}
{"COMPOUND": "CN(C)CCn1c(=O)c2ccc(NCCCN(C)CCCNc3ccc4c(=O)n(CCN(C)C)c(=O)n5c6ccc([N+](=O)[O-])cc6c(=O)c3c45)c3c(=O)c4cc([N+](=O)[O-])ccc4n(c1=O)c23", "CLASS": "active"}

* * *

- Test system: NCI-H226
- EXPERIMENT: NCI tumour cell line growth inhibition, 48 h
Calls of active or inactive are those of the source. Rule as the data show it: active = GI50 up to about 1.1 µM and inactive = higher. Where a SMILES comes first, the peptide text is derived from it. [ ]: non-standard residue; d: D form. The star is where a group is joined. NMeAc5c = CNC1(C(=O)O)CCCC1; Boc = CC(C)(C)OC(=O)*; OBn = c1ccc(CO*)cc1
Classes used: active, inactive

{"COMPOUND": "O=C1C(=C(C(F)(F)Cl)C(F)(F)Cl)C2CCC1C2 (centres undefined)", "CLASS": "inactive"}
{"COMPOUND": "CCN(CC)CCSc1c(C(C)=O)c(=O)n(-c2ccccc2)c(=S)n1-c1ccccc1", "CLASS": "inactive"}
{"COMPOUND": "O=c1[nH]c(=O)n(C2OC(CO)C(O)C2O)cc1OCCCc1ccccc1 (centres undefined)", "CLASS": "inactive"}
{"COMPOUND": "COCn1cnc2c(=O)n(-c3ccc(OC)cc3)c(=S)n(-c3ccc(OC)cc3)c21", "CLASS": "inactive"}
{"COMPOUND": "Cc1ccc2c(=O)c3ccccc3sc2c1", "CLASS": "inactive"}
{"COMPOUND": "N[C@H]1c2c(Br)sc(Br)c2C(=O)[C@H]1O", "CLASS": "inactive"}
{"COMPOUND": "CCOc1ccccc1NC(=O)CCc1nnc2s/c(=C\\CCc3ccccc3)c(=O)n12", "CLASS": "inactive"}
{"COMPOUND": "Fc1ccc(C2SCc3nc4ccccc4n32)c(F)c1 (centres undefined)", "CLASS": "inactive"}
{"COMPOUND": "CC1C(=O)OC2CC[N+]3([O-])CC=C(COC(=O)C(C)(O)C1(C)O)C23 (centres undefined)", "CLASS": "inactive"}
{"COMPOUND": "Oc1c(/N=N\\c2ccccc2)c2cccc3ccc4cccc1c4c32", "CLASS": "inactive"}
{"COMPOUND": "Cc1ccc(S(=O)(=O)N2c3ccccc3[C@H]3CCC=C[C@H]32)cc1", "CLASS": "inactive"}
{"COMPOUND": "COC(=O)[C@](NC(=O)OCc1ccccc1)([C@@H](C)[S+]([O-])c1ccc(C)cc1)C(F)(F)F (some centres undefined)", "CLASS": "inactive"}
{"COMPOUND": "COc1cccc(/C=C2\\C(=O)N(C(=O)c3ccc(NC(C)=O)cc3)N=C2C)c1", "CLASS": "inactive"}
{"COMPOUND": "CC(=O)/C=C1\\Nc2ccccc2N\\C1=C/C(C)=O", "CLASS": "inactive"}
{"COMPOUND": "COC(=O)/C=C(\\S/C=C(/c1ccccc1)N1CCn2c(C(=O)c3ccccc3)c(C(=O)OC)c(C(=O)OC)c21)C(=O)OC", "CLASS": "inactive"}
{"COMPOUND": "COC(CNC(=O)C(C)NC(=O)C(C)NC(=O)c1ccccc1)OC (centres undefined)", "CLASS": "inactive"}
{"COMPOUND": "CCCCCCCCCCCCCCCCSS(C)(=O)=O", "CLASS": "inactive"}
{"COMPOUND": "Cc1cc(NCCCCCCCCNc2cc(C)nc3cc(N)ccc23)c2ccc(N)cc2n1", "CLASS": "inactive"}
{"COMPOUND": "NC1=NS(=O)(=O)Nc2nc(-c3ccccc3)c(-c3ccccc3)nc21", "CLASS": "inactive"}
{"COMPOUND": "Cc1ccc(S(=O)(=O)NC(C)C(=O)O)cc1 (centres undefined)", "CLASS": "inactive"}
{"COMPOUND": "CN(C(=O)C(Cc1ccccc1)NC(=O)OC(C)(C)C)C1(C(=O)NC(Cc2ccccc2)C(=O)OCc2ccccc2)CCCC1 (stereo not drawn) (Boc-Phe-[NMeAc5c]-Phe-OBn; configuration not given here)", "CLASS": "inactive"}
{"COMPOUND": "COCCNC1CCC2(SCCS2)c2[nH]c3ccccc3c21 (centres undefined)", "CLASS": "inactive"}
{"COMPOUND": "C=CCn1c(=O)c(Br)nn(CCOCP(=O)(OCC)OCC)c1=O", "CLASS": "inactive"}
{"COMPOUND": "C/C1=C\\[C@H](C)C[C@H](C)OC(=O)C[C@H](c2ccc(O)cc2)NC(=O)[C@H](Cc2ccc(O)c(Br)c2)N(C)C(=O)[C@H](C)NC(=O)[C@@H](C)C1", "CLASS": "inactive"}
{"COMPOUND": "CC1=C(C(=O)c2ccccc2)C23C(=O)N(c4ccccc4)C(=O)C2=C(O)C=CC3(O)N1 (centres undefined)", "CLASS": "inactive"}
{"COMPOUND": "CCCCCCCCOc1ccc(/C=C/C2=[N+](CCO)CCO2)cc1", "CLASS": "inactive"}
{"COMPOUND": "CC1(C)[C@@H]2CC[C@@]1(C)[C@@H]1O[C@@H](O[C@@H](CN)c3cc(Cl)c(OCc4ccccc4)c(OCc4ccccc4)c3)C[C@H]21", "CLASS": "active"}
{"COMPOUND": "CC1OC(n2ncc(=O)[nH]c2=O)C=CC1=O (centres undefined)", "CLASS": "inactive"}
{"COMPOUND": "O=S1(=O)C[C@@H](O)[C@H](O)CS1", "CLASS": "inactive"}
{"COMPOUND": "C=C1C(=O)OC2/C=C(/CO)C3(O)CC(O)C(C)(CC(OC(=O)/C(C)=C/C)C12)O3 (centres undefined)", "CLASS": "inactive"}
{"COMPOUND": "C=CCN1C[C@H](C)N([C@H](c2ccc(C(=O)N(CC)CC)cc2)c2cccc(OC)c2)C[C@H]1C", "CLASS": "inactive"}
{"COMPOUND": "FC(F)(F)C12C34C=CC5(CCC6(C=CC1(CC3)O6)C52C(F)(F)F)O4 (centres undefined)", "CLASS": "inactive"}
{"COMPOUND": "CC1(CCCC2(C)CCNC2=O)OCCO1 (centres undefined)", "CLASS": "inactive"}
{"COMPOUND": "O=C(OCC(OC(=O)c1ccccc1)C(OC(=O)c1ccccc1)C(OC(=O)c1ccccc1)c1cnn(-c2ccccc2)n1)c1ccccc1 (centres undefined)", "CLASS": "inactive"}
{"COMPOUND": "C=C1CC2(CC(c3ccccc3C)OC(c3ccccc3C)C2)OC1=O (centres undefined)", "CLASS": "inactive"}
{"COMPOUND": "CC(=O)Oc1ccc(-c2nnc(-c3ccc(OC(C)=O)cc3)nn2)cc1", "CLASS": "inactive"}
{"COMPOUND": "COC(=O)[C@H](Cc1ccccc1)NC(=O)NCCN(CCNC(=O)N[C@@H](Cc1ccccc1)C(=O)OC)C(=O)N[C@@H](Cc1ccccc1)C(=O)OC", "CLASS": "inactive"}
{"COMPOUND": "CN(C)c1ccc(/N=C2/C=CC(=C(C#N)C#N)c3ccccc32)cc1", "CLASS": "active"}
{"COMPOUND": "COc1ccc2c(c1)OCC1(O)Cc3ccccc3OC21 (centres undefined)", "CLASS": "inactive"}
